Tested on: c-Src;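 note: 11-residue human phosphosite peptides and single-mutation variants displayed on the E. coli surface, counted by deep sequencing, each peptide's frequency after selection divided by its frequency in the unselected input library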;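 note: frequency after pTyr selection over input frequency; kinase dosed for 20-30% of maximal phosphorylation in three min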
protocol-notes: phosphorylation enrichment, bacterial display (enrichment ratio); higher = better substrate or ligand; peptides without Tyr show the background
Items are presented alongside their recorded phosphorylation enrichment.
Please reply with the value in numeric form only.

KGSEGYLAAIF [NF1_Y2503_T2507I_YF]
0.421
RRNEEYCLLAS [ITK_Y198_D202A]
0.57
VVLVSYVPFSQ [SH2B1_Y624_S627F]
0.833

Query phosphorylation enrichment on c-Src for EPVSDYINADI [PTPN11_Y304_N308D]
0.514

Same lookup for GGRKGYGDFSR [RECQL5_Y478] , please.
0.418

Same lookup for CTTIHYFFMCN [TP53_Y234_N235Y_YF] , please.
0.279

Same lookup for VPANRYDLLRL [FARSB_Y72_C76R] , please.
0.393

Same lookup for DTKDDYNALSV [IL17RB_Y457] , please.
0.443

Same lookup for PGAPAYCVLME [MYO5A_Y1245_R1246C] , please.
0.964

Same lookup for EKMWTYMPSAE [GRIA4_Y695_R697P] , please.
0.329

Same lookup for KILGRYFETSS [PAX2_Y72_G76S_YF] , please.
0.341

Same lookup for FLNSIYKCRDE [ROS1_Y2227_S2229C] , please.
0.774

Same lookup for PLYSKYWPNHI [GREB1L_Y1560_R1558S] , please.
11.8
